- Test target: T1, AAV9 (adeno-associated virus 9)
- T1 construct: also called adeno-associated virus serotype 9
- Assay name: SPR, AAV amine-coupled to CM5 chip;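 note: nanobodies flowed as analyte at seven concentrations spanning 1–100 nM over immobilized AAV (500–800 RU), kinetic constants derived by fitting the binding curves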
Measurement kind: koff (s⁻¹)
Could you give me the number in s⁻¹? Just the number is fine.

# count of solved cases: 7
- Binder: "A4-081 (VHH) VHH: VQLQESGGGLVQPGGSLRLSCAASGSRFSLNTMGWYRQAPGKQRELVATVTRGGSTNYADSVKGRFTISRDNAKNTVYLQMNSLRPEDTAVYYCHVDELRESGWTTSNLWGQGTQVTVSS"
  koff, s⁻¹: 0.00131
- Binder: "A4-084 (VHH) VHH: VQLQESGGGLVQPGGSLKLSCAASGSRFSLNTMGWYRQAPRKQREFVAAVTRGGNTNYGDFVKGRFTISRDNAKNTVYLQMNSLRPEDTAVYYCHVDELRESSWTTSNLWGQGTQVTVSS"
  koff, s⁻¹: 0.0003
- Binder: "A4-090 (VHH) VHH: VQLQESGGGLVQPGGSLRLSCVASGSRFIINTMGWYRQAPGKQRELVATFTRGGNTNYAESVKGRFTISRDNGKSTVYLQMNSLRPEDTAVYYCHVDEVRESTWTTSNLWGQGTQVTVSS"
  koff, s⁻¹: 0.0015
- Binder: "A4-098 (VHH) VHH: VQLQESGGGLVQPGGSLRLSCIASGSIFSINTMGWYRQAPGKQRELVATITRGGNTNYGDSVKGRFTISRDNAKNTVYLQMNTLRPEDTAVYYCHVDEIRESSWTTSNLWGQGTQVTVSS"
  koff, s⁻¹: 0.0006
- Binder: "A4-095 (VHH) VHH: VQLQESGGGLVQPGGSLRLSCAASGSSFSANTMGWYRQAPGKQRELVATITRGGNTNYGDSVKGRFTISRDNAKDTVYLQMNSLRPEDTAVYYCHIDEIRESTWTTSNLWGQGTQVTVSS"
  koff, s⁻¹: 0.00114
- Binder: "A4-055 (VHH) VHH: VQLQESGGGLVQPGGSLRLSCAASGSIFSINTMGWYRQAPGKQRELVAAVTRGGSTNYADSVKGRFTISRDNAKNTVYLQMNSLRPEDTAVYYCHVDEVRQSSWTTSNLWGQGTQVTVSS"
  koff, s⁻¹: 0.00032
- Binder: "A4-061 (VHH) VHH: VQLQESGGGLVQPGGSLRLSCAASGSRFSLNTMGWYRQAPGKQRELVATVTRGGSTNYANSVKGRFTISRDNAKNTVYLQMNSLRPEDTAVYYCHVDEVRQSTWTTSNLWGQGTQVTVSS"
  koff, s⁻¹: 0.0013

Then there is this binder:
Please report the measured koff for A4-051 (VHH) VHH: VQLQESGGGLVQPGGSLRLSCAASGSSFVINTMGWYRRAPGKQRELVAAVTRGGSTNYADSVKGRFTISRDNAKNTVYLQMNSLRPEDTAVYYCHVDEVRQSSWTTSNLWGQGTQVTVSS 0.00477

Measured values drawn from patent US20260193326A1 for this set.
